B1: Caulobacter ParB omega fusion; a variant is named by its letters at X, in order, B8GW30 (parent)
chain: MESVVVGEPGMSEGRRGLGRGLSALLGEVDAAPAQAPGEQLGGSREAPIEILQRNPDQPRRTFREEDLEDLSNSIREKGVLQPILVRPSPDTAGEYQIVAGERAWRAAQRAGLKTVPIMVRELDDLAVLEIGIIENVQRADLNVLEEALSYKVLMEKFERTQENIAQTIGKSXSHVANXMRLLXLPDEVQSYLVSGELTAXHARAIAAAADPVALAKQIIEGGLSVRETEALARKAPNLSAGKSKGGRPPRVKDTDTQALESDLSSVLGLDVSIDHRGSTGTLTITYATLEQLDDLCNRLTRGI

Variants of: B1
TEST PROTOCOL: one-hybrid fitness for binding parS DNA (scaled: cognate 1, non-cognate 0); higher = stronger binding
CONDITION PARAMETERS: with parS DNA site
Whole data set: some 81,000 sequences, median “one-hybrid fitness for binding parS DNA” near -0.17, cut for the highest 2% near 0.51. Many of the other results were omitted from the sample, so the highest values are more common in it than they were.
Parameter one-hybrid fitness for binding parS DNA: see the listing below.
OUTCOME MEASURE: one-hybrid fitness for binding parS DNA

> print(dat)
    mutation.spec  endpoint.value
 1           IMSG           ≤ 0.2
 2           QSAW           ≤ 0.2
 3           RGMC           0.543
 4           RLDI           ≤ 0.2
 5           RGSC           0.672
 6           SPNG           ≤ 0.2
 7           TIRR           ≤ 0.2
 8           PYET           ≤ 0.2
 9           LLNT           ≤ 0.2
10           RQCH           ≤ 0.2
11           RQFP           ≤ 0.2
12           RVSA           0.581
13           RQYS               1
14           RVPA           0.324
15           VDHL           ≤ 0.2
16           RGGR           ≤ 0.2
17           NVWA           ≤ 0.2
18           ITHW           ≤ 0.2
19           RQCS           0.976
20           RHRM           0.277
21           PVHA           ≤ 0.2
22           CFNA           ≤ 0.2
23           ATIC           ≤ 0.2
24           FRWG           ≤ 0.2
25           RGQF           ≤ 0.2
26           HRKW           ≤ 0.2
27           DNAI           ≤ 0.2
28           RVWA           0.616
29           RGGC           0.594
30           QTTD           ≤ 0.2
31           NFGS           ≤ 0.2
32           PVSA           ≤ 0.2
33           TCRI           ≤ 0.2
34           RVHA           0.552
35           RQFH           ≤ 0.2
36           AAAL           ≤ 0.2
37           QQQV           ≤ 0.2
38           VHRF           ≤ 0.2
39           DYVS           ≤ 0.2
40           RGQC           0.649
41           HMWR           ≤ 0.2
42           RGMP           ≤ 0.2
43           PTLA           ≤ 0.2
44           RGMM           ≤ 0.2
45           RHRY           0.473
46           RGSK           ≤ 0.2
